Biological target: B1R receptor of the rat (Rattus norvegicus, UniProt P97583)
Construct: host or cells: CHO K1 cells (Chinese hamster ovary), stably transfected
Sequence (P97583 1-337): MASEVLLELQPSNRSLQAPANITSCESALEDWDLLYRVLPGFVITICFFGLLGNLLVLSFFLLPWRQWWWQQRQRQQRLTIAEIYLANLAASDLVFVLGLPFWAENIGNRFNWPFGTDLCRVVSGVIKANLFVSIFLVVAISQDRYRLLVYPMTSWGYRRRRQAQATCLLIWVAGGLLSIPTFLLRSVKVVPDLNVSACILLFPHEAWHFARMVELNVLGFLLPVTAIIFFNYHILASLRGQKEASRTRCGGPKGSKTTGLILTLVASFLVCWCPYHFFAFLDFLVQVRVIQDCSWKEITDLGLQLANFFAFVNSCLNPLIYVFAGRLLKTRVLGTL
Experiment: Functional study on the bradykinin receptor 1 (B1R), FLIPR Ca2+ assay, rB1R cells
Type: cell-based
Settings: CHO-K1, test substance 10 μM, agonist Des-Arg9-bradykinin 100 nM, % inhibition compared with the maximum achievable inhibition, read-out: B1R Antagonism, rat [10 μM] % Inhibition
Structures can show the parent of a compound that is named as a salt.
reportedMetric: inhibition at 10 µM (%)

{"compound": "O=C(COCC1CCCN1S(=O)(=O)c1c(Cl)cc(Cl)cc1Cl)NCc1ccc(N2CCOCC2)cc1 (centres unmarked)", "reportedMetric": "inhibition at 10 µM", "unitOfMeasurement": "%", "numericValue": 88.5}
{"compound": "Cc1ccc(Cl)cc1N1CCN(C(=O)COCC2CCCCN2S(=O)(=O)c2c(Cl)cccc2Cl)CC1 (centres unmarked)", "reportedMetric": "inhibition at 10 µM", "unitOfMeasurement": "%", "numericValue": 100}
{"compound": "COc1ccc(S(=O)(=O)N2CCCCC2COCC(=O)Nc2ccc(N3CCOCC3)c3nonc23)cc1 (centres unmarked)", "reportedMetric": "inhibition at 10 µM", "unitOfMeasurement": "%", "numericValue": 85.6}
{"compound": "O=C(COCC1Cc2ccccc2CN1S(=O)(=O)c1ccccc1)Nc1cccc(N2CCOCC2)c1 (centres unmarked)", "reportedMetric": "inhibition at 10 µM", "unitOfMeasurement": "%", "numericValue": 31.7}
{"compound": "CN1CCN(C2CCN(C(=O)COCC3CCCN3S(=O)(=O)c3c(Cl)cc(Cl)cc3Cl)CC2)CC1 (centres unmarked)", "reportedMetric": "inhibition at 10 µM", "unitOfMeasurement": "%", "numericValue": 100}
{"compound": "Cc1cc(C)c(S(=O)(=O)N2CCCCC2COCC(=O)N2CCN(C3CCN(C)CC3)CC2)c(C)c1 (centres unmarked)", "reportedMetric": "inhibition at 10 µM", "unitOfMeasurement": "%", "numericValue": 102}
{"compound": "O=C(COCC1CCCCN1S(=O)(=O)c1c(Cl)cccc1Cl)N1CCCN(Cc2ccccc2)CC1 (centres unmarked)", "reportedMetric": "inhibition at 10 µM", "unitOfMeasurement": "%", "numericValue": 101}
{"compound": "COc1cc(C)c(S(=O)(=O)N2CCCC2COCC(=O)N2CCCN(c3ncccc3C#N)CC2)c(C)c1 (centres unmarked)", "reportedMetric": "inhibition at 10 µM", "unitOfMeasurement": "%", "numericValue": 96.2}
{"compound": "COc1cc(C)c(S(=O)(=O)N2CCCCC2COCC(=O)N2CCC(N3CCn4ccnc4C3)CC2)c(C)c1 (centres unmarked)", "reportedMetric": "inhibition at 10 µM", "unitOfMeasurement": "%", "numericValue": 98.2}
{"compound": "COc1ccc(S(=O)(=O)N2c3ccccc3CC2COCC(=O)N2CCN(CCn3c(C)ccc3C)CC2)cc1 (centres unmarked)", "reportedMetric": "inhibition at 10 µM", "unitOfMeasurement": "%", "numericValue": 95.4}
{"compound": "CN(C)CCN(Cc1ccccc1)C(=O)COCC1CCCCN1S(=O)(=O)c1c(Cl)cccc1Cl (centres unmarked)", "reportedMetric": "inhibition at 10 µM", "unitOfMeasurement": "%", "numericValue": 100}
{"compound": "O=C(COCC1Cc2ccccc2CN1S(=O)(=O)c1ccc(Cl)cc1Cl)N1CCC(N2CCCCC2)CC1 (centres unmarked)", "reportedMetric": "inhibition at 10 µM", "unitOfMeasurement": "%", "numericValue": 85.3}
{"compound": "CCN(CC)CCN(CCN(CC)CC)C(=O)COCC1Cc2ccccc2CN1S(=O)(=O)c1c(C)cc(C)cc1C (centres unmarked)", "reportedMetric": "inhibition at 10 µM", "unitOfMeasurement": "%", "numericValue": 30.5}
{"compound": "COc1cc(C)c(S(=O)(=O)N2CCCCC2COCC(=O)NCC(c2ccccc2Cl)N2CCOCC2)c(C)c1 (centres unmarked)", "reportedMetric": "inhibition at 10 µM", "unitOfMeasurement": "%", "numericValue": 98.5}
{"compound": "COc1cc(C)c(S(=O)(=O)N2CCCC2COCC(=O)NCc2ccccc2N2CCN(C)CC2)c(C)c1 (centres unmarked)", "reportedMetric": "inhibition at 10 µM", "unitOfMeasurement": "%", "numericValue": 99.5}
{"compound": "COc1cc(C)c(S(=O)(=O)N2CCCCC2COCC(=O)N2CCCC2CN2CCCCC2)c(C)c1 (centres unmarked)", "reportedMetric": "inhibition at 10 µM", "unitOfMeasurement": "%", "numericValue": 102}
{"compound": "COc1cc(C)c(S(=O)(=O)N2Cc3ccccc3CC2COCC(=O)N2CCCCC2Cc2cccc(C)n2)c(C)c1C (centres unmarked)", "reportedMetric": "inhibition at 10 µM", "unitOfMeasurement": "%", "numericValue": 81.6}
{"compound": "CN1CCC(N2CCN(C(=O)COCC3CCCCN3S(=O)(=O)c3ccc(Cl)cc3Cl)CC2)CC1 (centres unmarked)", "reportedMetric": "inhibition at 10 µM", "unitOfMeasurement": "%", "numericValue": 103}
{"compound": "COc1cc(C)c(S(=O)(=O)N2CCCCC2COCC(=O)N(C)CCN(C)C)c(C)c1 (centres unmarked)", "reportedMetric": "inhibition at 10 µM", "unitOfMeasurement": "%", "numericValue": 102}
{"compound": "COc1cc(C)c(S(=O)(=O)N2Cc3ccccc3C[C@H]2COCC(=O)N2CCN(CC3CCN(C)CC3)CC2)c(C)c1", "reportedMetric": "inhibition at 10 µM", "unitOfMeasurement": "%", "numericValue": 97.9}
{"compound": "O=C(COCC1CCCCN1S(=O)(=O)c1c(Cl)cc(Cl)cc1Cl)NCc1ccc(N2CCOCC2)cc1 (centres unmarked)", "reportedMetric": "inhibition at 10 µM", "unitOfMeasurement": "%", "numericValue": 76.3}
{"compound": "O=C(COCC1CCCCN1S(=O)(=O)c1c(Cl)cccc1Cl)N1CCC(N2CCCCC2)CC1 (centres unmarked)", "reportedMetric": "inhibition at 10 µM", "unitOfMeasurement": "%", "numericValue": 105}
{"compound": "CN1CCC(N2CCN(C(=O)COCC3CCCCN3S(=O)(=O)c3c(Cl)cccc3Cl)CC2)CC1 (centres unmarked) [Example 141, dihydrochloride]", "reportedMetric": "inhibition at 10 µM", "unitOfMeasurement": "%", "numericValue": 101}
{"compound": "Cc1ccc2ccccc2c1S(=O)(=O)N1CCCCC1COCC(=O)N1CCN(C2CCN(C)CC2)CC1 (centres unmarked) [Example 157, dihydrochloride]", "reportedMetric": "inhibition at 10 µM", "unitOfMeasurement": "%", "numericValue": 100}
{"compound": "COc1cc(C)c(S(=O)(=O)N2CCCCC2COCC(=O)N(C)C(CN2CCOCC2)c2ccccc2)c(C)c1 (centres unmarked)", "reportedMetric": "inhibition at 10 µM", "unitOfMeasurement": "%", "numericValue": 101}
{"compound": "COc1cc(C)c(S(=O)(=O)N2CCCCC2COCC(=O)N2CCc3cc(N4CCN(C)CC4)ccc3C2)c(C)c1 (centres unmarked)", "reportedMetric": "inhibition at 10 µM", "unitOfMeasurement": "%", "numericValue": 101}
{"compound": "O=C(COCC1CCCCN1S(=O)(=O)c1ccc(Cl)c(Cl)c1)N1CCN(CC2CCCCC2)CC1 (centres unmarked)", "reportedMetric": "inhibition at 10 µM", "unitOfMeasurement": "%", "numericValue": 0}
{"compound": "COc1ccc(S(=O)(=O)N2CCCCC2COCC(=O)N2CCN(C3CCN(C)CC3)CC2)c2ccccc12 (centres unmarked) [Example 174, dihydrochloride]", "reportedMetric": "inhibition at 10 µM", "unitOfMeasurement": "%", "numericValue": 98}
{"compound": "CN1CCC(N2CCN(C(=O)COCC3CCCCN3S(=O)(=O)c3cccc(Cl)c3Cl)CC2)CC1 (centres unmarked) [Example 173, dihydrochloride]", "reportedMetric": "inhibition at 10 µM", "unitOfMeasurement": "%", "numericValue": 101}

Measured values drawn from patent US8435978B2 for this set.
